// data source = patent US8546603B2

Target: EP1 (Homo sapiens)
Sequence (P34995 1-402): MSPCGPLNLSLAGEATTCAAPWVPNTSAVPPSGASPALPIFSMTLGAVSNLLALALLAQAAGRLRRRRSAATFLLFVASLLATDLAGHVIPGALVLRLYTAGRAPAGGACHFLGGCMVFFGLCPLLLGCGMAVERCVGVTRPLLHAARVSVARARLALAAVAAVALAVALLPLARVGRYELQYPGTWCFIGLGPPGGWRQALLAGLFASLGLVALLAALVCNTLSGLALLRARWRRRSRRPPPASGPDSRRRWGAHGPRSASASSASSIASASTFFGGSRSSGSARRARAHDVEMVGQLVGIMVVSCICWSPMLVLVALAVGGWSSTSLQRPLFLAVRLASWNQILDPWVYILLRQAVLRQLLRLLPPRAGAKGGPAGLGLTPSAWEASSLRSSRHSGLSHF
Test: EP1 functional assay
Answer each item with its documented EC50.
Answers are plain numbers, in nM.

smiles_input=C[C@@H](O)CCC[C@H](O)/C=C/[C@H]1[C@H](O)CC(=O)[C@@H]1C/C=C\CCCC(=O)O metric_name=EC50 unit_name=nM experimental_value=308
smiles_input=C[C@@H](O)CCC[C@H](O)/C=C/[C@H]1[C@H](O)CC(=O)[C@@H]1CCCCCCC(=O)O metric_name=EC50 unit_name=nM experimental_value=2760

As a next step, examine the compound that follows.
Prompt: Which EC50 reading was recorded for the compound C[C@@H](O)CCC[C@H](O)/C=C/[C@@H]1[C@@H](CCCc2ccc(C(=O)O)s2)[C@H](Cl)C[C@H]1O ?
Completion: 724

----------
Molecular target: EP2 (Homo sapiens, UniProt P43116)
Sequence (P43116 whole entry): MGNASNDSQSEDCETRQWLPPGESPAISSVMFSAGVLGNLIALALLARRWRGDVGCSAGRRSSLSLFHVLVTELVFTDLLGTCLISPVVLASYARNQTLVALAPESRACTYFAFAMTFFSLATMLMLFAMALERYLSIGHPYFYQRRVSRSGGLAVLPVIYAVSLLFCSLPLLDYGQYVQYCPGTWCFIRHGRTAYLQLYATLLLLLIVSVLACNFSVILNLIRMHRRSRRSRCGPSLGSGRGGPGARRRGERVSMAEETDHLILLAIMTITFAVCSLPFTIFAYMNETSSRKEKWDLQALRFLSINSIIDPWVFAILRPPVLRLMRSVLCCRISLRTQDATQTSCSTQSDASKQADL
Assay: EP2 binding assay
Quick rule for you: EC50 under 0.4 µM gets 1, anything else gets -1.

Example results:
compound="COC(/C=C/[C@@H]1[C@@H](CCCc2ccc(C(=O)O)s2)[C@H](Cl)C[C@H]1O)CCC[C@@H](C)O (stereo partly drawn) [AGN-219309]" classification=-1
compound="C[C@H](O)CCC[C@H](O)/C=C/[C@@H]1[C@@H](CCCc2ccc(C(=O)O)s2)[C@H](Cl)C[C@H]1O [AGN-221568]" classification=1
compound="C[C@@H](O)CCC[C@H](O)/C=C/[C@H]1[C@H](O)CC(=O)[C@@H]1C/C=C\\CCCC(=O)O [AGN-191286]" classification=-1
compound="C[C@@H](O)CCC[C@H](O)/C=C/[C@H]1[C@H](O)CC(=O)[C@@H]1CCCCCCC(=O)O [AGN-191287]" classification=-1
compound="COC(/C=C/[C@@H]1[C@@H](CCCc2ccc(C(=O)O)s2)[C@H](Cl)C[C@H]1O)CCC[C@@H](C)O (stereo partly drawn) [AGN-219310]" classification=1

Prompt: In plain terms, does C[C@@H](O)CCC[C@H](O)/C=C/[C@@H]1[C@@H](CCCc2ccc(C(=O)O)s2)[C@H](Cl)C[C@H]1O [AGN-217510] come in under 0.4 µM for EC50?
Completion: 1

----------
Molecular target: EP4 (Homo sapiens, UniProt P35408)
Sequence (P35408 whole entry): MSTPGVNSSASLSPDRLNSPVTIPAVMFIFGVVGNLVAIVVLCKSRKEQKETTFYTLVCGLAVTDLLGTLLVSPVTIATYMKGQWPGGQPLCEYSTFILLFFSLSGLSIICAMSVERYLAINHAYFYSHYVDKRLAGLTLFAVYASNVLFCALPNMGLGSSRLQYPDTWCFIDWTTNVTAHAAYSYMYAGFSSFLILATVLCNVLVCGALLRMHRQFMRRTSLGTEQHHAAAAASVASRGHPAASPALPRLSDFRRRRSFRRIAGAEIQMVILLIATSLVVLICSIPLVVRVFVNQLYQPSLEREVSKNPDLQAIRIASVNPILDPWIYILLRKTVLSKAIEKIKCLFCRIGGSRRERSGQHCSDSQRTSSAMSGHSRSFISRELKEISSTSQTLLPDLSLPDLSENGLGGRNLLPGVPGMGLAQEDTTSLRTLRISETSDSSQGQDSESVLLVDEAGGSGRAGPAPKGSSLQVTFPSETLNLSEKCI
Assay: EP4 Ca2+ signal assay
Assay type: cell-based
Metric name: pEC50
Give bare numbers, as −log10 of the molar value.

compound="C[C@H](O)CCC[C@H](O)/C=C/[C@@H]1[C@@H](CCCc2ccc(C(=O)O)s2)[C@H](Cl)C[C@H]1O [AGN-221568]" experimental_value=7.46
compound="C[C@@H](O)CCC[C@H](O)/C=C/[C@@H]1[C@@H](CCCc2ccc(C(=O)O)s2)[C@H](Cl)C[C@H]1O [AGN-217510]" experimental_value=6.84
compound="C[C@@H](O)CCC[C@H](O)/C=C/[C@H]1[C@H](O)CC(=O)[C@@H]1C/C=C\\CCCC(=O)O [AGN-191286]" experimental_value=6.72

As a next step, examine the compound that follows.
Prompt: Which pEC50 reading was recorded for the compound C[C@@H](O)CCC[C@H](O)/C=C/[C@H]1[C@H](O)CC(=O)[C@@H]1CCCCCCC(=O)O [AGN-191287] ?
Completion: 6.71
